target: Heat shock protein HSP 90-alpha (Homo sapiens); experiment: tumor Hsp90 inhibitors, primary screen, cell lysate, fluorescence polarization, NCI-N417 lysate (AID 429); details: NCI-N417 lysate Hsp90, Cy3B-geldanamycin FP displacement; at 30 µM
In all, about 64,000 compounds went through this assay and about 220 (0.34%) were called active.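 The calls were made as follows: active = inhibition above 50%; inactive = the rest.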 Many of the other results were omitted from the sample, so actives are more common in it than they were.
Please reply with one of these outcomes: T (active), F (inactive)

CN(c1ccccc1)c1ccc(/C=c2\s/c(=C(/C#N)C(=O)C(C)(C)C)n(Cc3ccco3)c2=O)cc1    T

Q: Look up the recorded call for `CC(=O)N1CCC(C(=O)Nc2nc(-c3ccccc3)ns2)CC1` in this test.
Ans: F

Q: Same for `O=C(c1ccccc1)c1ccc2nc(N3CCCCC3)c3nncn3c2c1`
Ans: F

Q: Same for O=C(Nc1nccs1)C1CCCN1S(=O)(=O)c1cccc2cccnc12 (stereo not given)
Ans: F

Q: Same for `Cn1c(=O)[nH]c(=O)c2c1nc(Br)n2CCCCSc1nc2ccccc2o1`
Ans: F

Q: Same for `CCCc1nc2ccccc2c(=O)n1NC(=O)c1c(O)c2ccccc2[nH]c1=O`
Ans: F

Q: Same for `O=C(NCc1cn2ccsc2n1)Nc1cccc(Cl)c1`
Ans: F

Q: Same for `CCCCc1nc2ccccc2c(=O)n1NC(=O)c1c(O)c2cccc3c2n(c1=O)CC3`
Ans: F

Q: Same for `CC1CCN(Cc2nc3c(c(=O)n(C)c(=O)n3C)n2Cc2cccc3ccccc23)CC1`
Ans: F

Q: Same for `CCCc1nc2ccccc2c(=O)n1/N=C/c1ccc(O)c(O)c1`
Ans: T
